This collection of values is drawn from PubChem BioAssay (NCATS).

protocolSummary: Cell Viability - N2a (AID 540);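 note: cells exposed to compound for 40 h at 37 °C; plate controls were DMSO alone for no effect and tamoxifen control for full effect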
conditionNotes: N2a mouse neuroblastoma cell viability; at 92.2 µM (top of the series)
Results filed as inconclusive are left out.
Give measured activity change, negative = cytotoxicity for each item. Keep answers brief.
Answers are plain numbers, in %.

Field: example entries. Status: answers known.
>>> df
                          compound                          measurementlabel  valueobserved
0            CCOc1ccc(NC(C)=O)cc1N  activity change, negative = cytotoxicity          -12.5
1  CCN(C(=O)N(CC)c1ccccc1)c1ccccc1  activity change, negative = cytotoxicity          -13.7
2               FC(F)(F)c1ccccc1Cl  activity change, negative = cytotoxicity          -3.42
3              c1ccc(Nc2ccccc2)cc1  activity change, negative = cytotoxicity          -5.87

Hi team, please reply with activity change, negative = cytotoxicity for each item in this list.
1. O=C1OC(=O)c2c(Cl)c(Cl)c(Cl)c(Cl)c21
2. O=[N+]([O-])c1ccc(NCCO)c(OCCO)c1

Output:
4.39
-0.601

Hi team, please reply with activity change, negative = cytotoxicity for each item in this list.
1. Fc1ccccc1
2. Nc1ccccc1[N+](=O)[O-]
3. Cc1ccccc1C(N)=O

Output:
1. 2.48
2. -9.35
3. -9.85

Hi team, please reply with activity change, negative = cytotoxicity for each item in this list.
1. Cc1ccc(Cl)cc1
2. Cc1cc(C2(c3cc(C)c(O)cc3C)OS(=O)(=O)c3ccccc32)c(C)cc1O

Output:
1.61
-2.09
